- Tgt: Transcription intermediary factor 1-alpha (Homo sapiens)
- Stated conditions: Compound concentration 20.0 uM
Listing: ΔTm of selected molecules
Attribute measured: ΔTm (°C)

COC[C@H](NC(=O)c1ccn(S(C)(=O)=O)c1)C(=O)Nc1nc(-c2cccc(-c3ccn(C)n3)c2)cs1 = -1.12
CC(=O)N[C@@H](Cc1ccc(O)cc1)C(=O)N[C@H](C(=O)N[C@@H](C)C(=O)N[C@@H](CC(=O)O)C(=O)COC(=O)c1c(C)cccc1C)C(C)C = -0.84
Cc1ccc(F)c2cc(C(=O)N[C@@H]3CCC[C@H](N4CC[C@H](N(C)S(C)(=O)=O)C4)C3)[nH]c12 = -1.39
Cn1ncc(-c2nn(C)c3ncnc(N4CCC4)c23)c1-c1ccc(C(F)(F)F)cc1 = -2.31
Cc1cc(C(=O)CN2CCC(O)CC2)c(C)n1-c1ccc(C#N)cc1 = -1.8
Cn1ncnc1[C@H]1C2=c3c(cc(F)cc3=N[C@@H]1c1ccc(F)cc1)C(=O)NN2 = 0.57
Cn1c(=O)cc(N2CCC[C@@H](N)C2)n(Cc2ccccc2C#N)c1=O = 0.69
COc1ccc(-c2ccc3c(c2)COC3=O)n2nc(C3(C(=O)OCC(C)C)CC3)nc12 = 0.5
CN1CCN(c2cc(C(=O)Nc3ncc(SCc4cccc(C(F)(F)F)c4)s3)ccn2)CC1 = -2.66
COc1ncc(C)cc1CC[C@@](O)(CC(=O)O)C(=O)O = -0.23
O=C(NCCCOc1ccc2[nH]c(=O)ccc2c1)N(C1CC1)[C@@H]1CCCC[C@H]1O = 0.02
